Source: ChEMBL document CHEMBL2157868

# protocol.details: Cytotoxicity against human MOO6X cells after 3 days by MTT assay
# Assay type: functional, cell-based
# condition.notes: 72 h
attribute.measured: IC50

As a guide, the following entries are already answered.
O=[N+]([O-])c1nccn1CC([18F])COC[C@H]1OC(O)[C@H](O)[C@@H](O)[C@@H]1O (mixture of isomers) = > 1000 µM
O=[N+]([O-])c1nccn1[C@H]1O[C@H](C[123I])[C@@H](O)[C@@H]1O [IODOAZOMYCIN ARABINOSIDE] = > 1000 µM

Could you now look at the following molecule, please?
Provide IC50 value for the following molecule: O=[N+]([O-])c1nccn1CC(O)COC[C@H]1OC(O)[C@H](O)[C@@H](O)[C@@H]1O (mixture of isomers)
50 µM
